System: Caco-2
Test: cell viability relative to DMSO; higher = less toxic
Details: 72 h; 1000 nM
metric.name: cell viability
Returns: string containing the number followed by the unit.

Ask: Indicate its recorded cell viability; the compound in question is "CCCCCCCCCCCCCCCCOP(=O)([O-])OCC[N+](C)(C)C"
Result: 114%

Ask: Indicate its recorded cell viability; the compound in question is "COc1cc2c(cc1F)C(c1ccccc1Cl)=Nc1c(n[nH]c1C)N2"
Result: 81.4%

Ask: Indicate its recorded cell viability; the compound in question is "Nc1ncccc1-c1nc2ccc(-c3ccccc3)nc2n1-c1ccc(C2(N)CCC2)cc1"
Result: 68%

Ask: Indicate its recorded cell viability; the compound in question is "NC1(C(=O)N[C@@H](CCO)c2ccc(Cl)cc2)CCN(c2ncnc3[nH]ccc23)CC1"
Result: 74.8%

Ask: Indicate its recorded cell viability; the compound in question is C[C@@H]([C@H](O)c1ccc(O)cc1)N1CCC(Cc2ccccc2)CC1 (racemic)
Result: 98%

Ask: Indicate its recorded cell viability; the compound in question is "Cc1nc(NC(=O)N2CCC[C@H]2C(N)=O)sc1-c1ccnc(C(C)(C)C(F)(F)F)c1"
Result: 91.5%

Ask: Indicate its recorded cell viability; the compound in question is "CCN(CC)CCOc1ccc(Cc2ccccc2)cc1"
Result: 105%

Ask: Indicate its recorded cell viability; the compound in question is "Cc1c(C)c(NCC(=O)N(C)C2CCN(Cc3ccc(C(N)=O)cc3)CC2)c(C)c(C)c1N"
Result: 96.6%

Ask: Indicate its recorded cell viability; the compound in question is "CC1(C)CC(Oc2ccc(-c3ccc(-c4cn[nH]c4)cc3O)nn2)CC(C)(C)N1"
Result: 94.6%

Ask: Indicate its recorded cell viability; the compound in question is "O=C(NCC(=O)N1CCCC1)Nc1ccc2cnccc2c1"
Result: 100%

Ask: Indicate its recorded cell viability; the compound in question is "Cc1cccc(NC(=O)CN2CCC(c3ccccn3)CC2)c1"
Result: 91.3%

Ask: Indicate its recorded cell viability; the compound in question is "O=C(NCCN1CCC2(CC1)C(=O)NCN2c1cccc(F)c1)c1ccc(F)c(F)c1"
Result: 91.1%

Ask: Indicate its recorded cell viability; the compound in question is "COc1ccc(CN(CCN(C)C)c2ncccn2)cc1"
Result: 101%

Ask: Indicate its recorded cell viability; the compound in question is "COc1cc2c(NC3CCN(C(C)C)CC3)nc(C3CCCCC3)nc2cc1OCCCN1CCCC1"
Result: 96.7%

Ask: Indicate its recorded cell viability; the compound in question is CC(=O)Oc1ccccc1C(=O)Nc1ncc([N+](=O)[O-])s1 [nitazoxanide]
Result: 104%

Ask: Indicate its recorded cell viability; the compound in question is "CCCc1nc(C(C)(C)O)c(C(=O)O)n1Cc1ccc(-c2ccccc2-c2nnn[nH]2)cc1"
Result: 90.9%

Ask: Indicate its recorded cell viability; the compound in question is "COc1ccncc1C(=O)NC(=O)Nc1ccc(-c2ccccc2)c(C(F)(F)F)c1"
Result: 99.1%

Ask: Indicate its recorded cell viability; the compound in question is "O=C(/C=C/C=C/c1ccc2c(c1)OCO2)N1CCCCC1"
Result: 97.4%

Ask: Indicate its recorded cell viability; the compound in question is O=C(CC1NCCCC1O)Cn1cnc2cc(Br)c(Cl)cc2c1=O (centres undefined)
Result: 28.6%

Data origin, for the record: the supplement of paper PMC13380429
